- targetOrTestSystem: Amine oxidase [flavin-containing] B (Homo sapiens, UniProt P27338)
- Sequence (P27338 whole entry): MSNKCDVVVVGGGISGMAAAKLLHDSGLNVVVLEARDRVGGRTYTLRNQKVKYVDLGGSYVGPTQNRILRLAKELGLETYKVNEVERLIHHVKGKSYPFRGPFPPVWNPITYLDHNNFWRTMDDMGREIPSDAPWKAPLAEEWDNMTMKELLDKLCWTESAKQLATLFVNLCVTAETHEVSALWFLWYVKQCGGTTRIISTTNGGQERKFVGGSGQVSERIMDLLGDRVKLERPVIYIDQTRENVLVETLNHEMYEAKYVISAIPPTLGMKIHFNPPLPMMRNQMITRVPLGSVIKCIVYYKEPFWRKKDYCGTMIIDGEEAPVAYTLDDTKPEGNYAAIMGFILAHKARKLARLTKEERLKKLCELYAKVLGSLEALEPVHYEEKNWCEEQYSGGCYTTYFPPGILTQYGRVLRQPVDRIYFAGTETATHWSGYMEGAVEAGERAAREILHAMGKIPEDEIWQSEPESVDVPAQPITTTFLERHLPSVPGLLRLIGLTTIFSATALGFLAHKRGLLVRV
propertyLabel: IC50
Answers without a unit are incomplete; give the number and then its unit.

Look up IC50: CCCCCC1OC(=O)c2cc(N3N=C(C)CC3=O)ccc21 (stereo unspecified)
12.9 µM

---

- targetOrTestSystem: Amyloid-beta precursor protein (Homo sapiens) (UniProt P05067)
- Sequence (P05067 whole entry): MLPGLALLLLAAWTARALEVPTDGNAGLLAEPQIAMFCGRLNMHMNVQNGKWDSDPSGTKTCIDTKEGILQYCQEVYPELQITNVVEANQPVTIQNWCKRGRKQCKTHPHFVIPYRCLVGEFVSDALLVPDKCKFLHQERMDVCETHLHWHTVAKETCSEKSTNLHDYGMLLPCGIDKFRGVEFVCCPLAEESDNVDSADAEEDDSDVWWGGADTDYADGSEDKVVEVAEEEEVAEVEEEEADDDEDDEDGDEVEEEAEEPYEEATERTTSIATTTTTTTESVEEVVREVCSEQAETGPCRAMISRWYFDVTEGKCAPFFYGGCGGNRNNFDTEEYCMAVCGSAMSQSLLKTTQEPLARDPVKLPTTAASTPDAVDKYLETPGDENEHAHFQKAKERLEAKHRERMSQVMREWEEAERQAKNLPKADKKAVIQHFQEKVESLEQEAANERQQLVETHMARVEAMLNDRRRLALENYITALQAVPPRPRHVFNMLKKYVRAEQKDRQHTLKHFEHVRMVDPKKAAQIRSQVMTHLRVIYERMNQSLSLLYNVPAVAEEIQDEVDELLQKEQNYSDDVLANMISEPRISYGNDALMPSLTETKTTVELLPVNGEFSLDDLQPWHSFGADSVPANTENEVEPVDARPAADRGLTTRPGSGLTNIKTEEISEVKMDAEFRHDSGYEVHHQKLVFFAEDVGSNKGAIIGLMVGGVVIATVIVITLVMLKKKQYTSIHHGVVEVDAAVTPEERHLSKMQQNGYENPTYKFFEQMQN
- assayProcedure: Inhibition of self-induced Amyloid beta (1 to 42) (unknown origin) aggregation at 25 uM after 24 hrs by thioflavin T-based fluorometric assay relative to control
Activity calls are given as the source filed them. The calls are words filed in the database; no cut-off is given here.
propertyLabel: inhibition

Example results:
compound | inhibition
CCCCCC1OC(=O)c2cc(-n3nc(C(F)(F)F)cc3O)ccc21 (stereo unspecified) | inactive
CCCCCCC1OC(=O)c2cc(N3N=C(C)CC3=O)ccc21 (stereo unspecified) | 50.1 to 71.5%
CCCCCCCC1OC(=O)c2cc(N3N=C(C)CC3=O)ccc21 (stereo unspecified) | 71.5%
COc1cc(/C=C/C(=O)CC(=O)/C=C/c2ccc(O)c(OC)c2)ccc1O | 39%
CCCCCCC1OC(=O)c2cc(-n3nc(C(F)(F)F)cc3O)ccc21 (stereo unspecified) | inactive

Shifting focus to the compound that follows.
Form entry - test system: Amyloid-beta precursor protein (Homo sapiens) (UniProt P05067); read-out: inhibition; compound: CCCCC1OC(=O)c2cc(N3N=C(C)CC3=O)ccc21 (stereo unspecified)
50.1 to 71.5%

---

Answer each item with its documented IC50.
- targetOrTestSystem: UniProt:P21397
- Sequence (P21397 whole entry): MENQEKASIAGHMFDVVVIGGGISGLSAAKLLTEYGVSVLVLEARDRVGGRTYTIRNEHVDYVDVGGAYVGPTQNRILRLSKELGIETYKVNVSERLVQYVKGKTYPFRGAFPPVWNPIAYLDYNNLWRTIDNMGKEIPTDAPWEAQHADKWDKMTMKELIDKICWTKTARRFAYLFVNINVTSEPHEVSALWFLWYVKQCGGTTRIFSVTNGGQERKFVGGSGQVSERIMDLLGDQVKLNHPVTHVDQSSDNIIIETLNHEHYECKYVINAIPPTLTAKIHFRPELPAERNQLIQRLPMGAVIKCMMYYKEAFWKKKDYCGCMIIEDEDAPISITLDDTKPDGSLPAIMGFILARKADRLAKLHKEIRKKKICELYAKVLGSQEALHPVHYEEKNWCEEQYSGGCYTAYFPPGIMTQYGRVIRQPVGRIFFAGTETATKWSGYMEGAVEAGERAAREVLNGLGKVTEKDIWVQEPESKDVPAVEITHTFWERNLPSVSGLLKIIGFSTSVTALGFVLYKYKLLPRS
- assayProcedure: Inhibition of recombinant human MAO-A using kynuramine as substrate after 30 mins by fluorescence assay
Reply with just the number (in µM).

Look up IC50: CCCCCCC1OC(=O)c2cc(N3N=C(C)CC3=O)ccc21 (configuration not stated)
15.2

Look up IC50: CCCCCC1OC(=O)c2cc(N3N=C(C)CC3=O)ccc21 (configuration not stated)
19.3

---

- targetOrTestSystem: Amyloid-beta precursor protein (Homo sapiens) (UniProt P05067)
- assayProcedure: Inhibition of self-induced Amyloid beta (1 to 42) (unknown origin) aggregation at 25 uM after 24 hrs by thioflavin T-based fluorometric assay relative to control
propertyLabel: inhibition

Look up inhibition: CCCCC1OC(=O)c2cc(-n3nc(C(F)(F)F)cc3O)ccc21 (stereo not given)
50.1 to 71.5%

Look up inhibition: CC1=NN(c2ccccc2)C(=O)C1
20.1%

Look up inhibition: CCCCCC1OC(=O)c2cc(N3N=C(C)CC3=O)ccc21 (stereo not given)
50.1 to 71.5%

Look up inhibition: CCCCC1OC(=O)c2ccccc21 (racemic) [RAC-3-N-BUTYLPHTHALIDE]
1.2%

---

- assayProcedure: Antioxidant activity assessed as trolox equivalent of AAPH radical scavenging activity at 1 uM preincubated for 15 mins followed by AAPH addition measured every min for 90 mins by ORAC-FL assay
- Format: functional
Answer each item with its documented Activity.
Reply with just the number (in µMequiv/µM).

Look up Activity: CCCCCCCC1OC(=O)c2cc(N3N=C(C)CC3=O)ccc21 (stereo unspecified)
1.18

Look up Activity: CC1=NN(c2ccccc2)C(=O)C1
0.72

Look up Activity: CCCCC1OC(=O)c2cc(-n3nc(C(F)(F)F)cc3O)ccc21 (stereo unspecified)
2.22

Look up Activity: CCCCCCCC1OC(=O)c2cc(-n3nc(C(F)(F)F)cc3O)ccc21 (stereo unspecified)
2.21

Look up Activity: CCCCC1OC(=O)c2cc(N3N=C(C)CC3=O)ccc21 (stereo unspecified)
1.03

Look up Activity: CCCCCCC1OC(=O)c2cc(N3N=C(C)CC3=O)ccc21 (stereo unspecified)
0.85

Source: ChEMBL document CHEMBL4002639
